- Protocol Summary: Viability qHTS for spleen associated tyrosine kinase inhibitor (SYKi) drug resistant MV4-11 cells (AID 1963824); also: nearly all actives have a fitted effect of over 35% in size
- Condition: SYKi-resistant MV4-11 viability, CellTiter-Glo, 72 h; series mostly up to 45 µM
Records with an inconclusive call do not appear. Calls of active or inactive are those of the source. Calls follow the shape of the dose curve; as a rule, active = well fitted cell-killing curve with a large enough effect; inconclusive = small, poorly fitted or top-dose-only effect, or effect the other way; inactive = no such curve, though single readings can be large or run the other way.
Select the matching outcome among 1 for active, -1 for inactive

Examples with answers:
Compound	Assigned Category
CCNC(=O)C#Cc1ccc2c(C(=Nc3ccc(CN(C)C)cc3)c3ccccc3)c(O)[nH]c2c1	1
CO[C@@H](C)Cn1c(=O)n(C)c2cnc3ccc(-c4cncc(C(C)(C)O)c4)cc3c21	1
O=C(OOC(=O)c1ccccc1)c1ccccc1	-1
NC(=O)N1CCC(CC(=O)N2CCC([C@H]3c4ncc(Br)cc4CCc4cc(Cl)cc(Br)c43)CC2)CC1	1
O=c1cc[nH]c(=S)[nH]1	1
COC(=O)c1ccnc(-c2cc(C(=O)NCCc3ccccc3)ccn2)c1	-1
COCCNCCCn1c(C(=O)CF)c(-c2ccc(C)cc2)c2c(N)ncnc21	1
OC(c1cc(C(F)(F)F)nc2c(C(F)(F)F)cccc12)C1CCCCN1 (stereo not given)	1

Task: Dear colleague, could you share the recorded outcome for `CCNC(=O)Nc1ccc(Oc2ncnc(N)c2/C=N/OC)cc1Cl` when you have a moment?
Output: 1

Task: Answer briefly: the call reported for `Nc1ccc(C(=O)Nc2cccc(-c3nc(N4CCOCC4)c4oc5ncccc5c4n3)c2)cn1` in this assay.
Output: 1

----------
- Protocol Summary: Viability qHTS for spleen associated tyrosine kinase inhibitor (SYKi) naive MV4-11 cells (AID 1963823); also: nearly all actives have a fitted effect of over 40% in size
- Condition: MV4-11 AML viability, CellTiter-Glo luminescence, 72 h; series mostly up to 45 µM
Records with an inconclusive call do not appear. Calls of active or inactive are those of the source. Calls come from the whole dose curve; as a rule, active = well fitted cell-killing curve with a large enough effect; inconclusive = small, poorly fitted or top-dose-only effect, or effect the other way; inactive = no such curve, though single readings can be large or run the other way.
I would appreciate it if you answered using one of these outcomes: 1.0 = active, 0.0 = inactive

Molecule	Assigned Category
O=C(/C=C/c1ccc(O)c(O)c1)O[C@@H]1C[C@@](OC(=O)/C=C/c2ccc(O)c(O)c2)(C(=O)O)C[C@@H](O)[C@@H]1O	0.0
O=C(/C=C\c1ccc(O)cc1)N[C@@H](Cc1ccc(O)cc1)C(=O)O	0.0
COc1cc2c(cc1OC)-c1[nH]nc(Nc3cccc(F)c3)c1C2	1.0
O=C(O)[C@H](O)[C@@H](O)[C@H](O[C@@H]1O[C@H](CO)[C@H](O)[C@H](O)[C@H]1O)[C@H](O)CO	0.0
CN1CCCC(n2nc(Cc3ccc(Cl)cc3)c3ccccc3c2=O)CC1 (stereo not given)	1.0

Task: Recorded call for `N#Cc1cc(F)cc(-c2nc(-c3ccccn3)no2)c1` ?
Output: 0.0

Task: What outcome does the record of this test show for `CCOCc1cc(OC)c(-c2ccc(C[C@H](NC(=O)c3c(F)cccc3F)C(=O)O)cc2)c(OC)c1` ?
Output: 0.0

Task: How was `Cc1onc(-c2c(Cl)cccc2Cl)c1C(=O)Cl` classified in this test?
Output: 0.0

Task: Test call, this molecule: `CC[C@@]1(O)C(=O)OCc2c1cc1n(c2=O)Cc2c-1nc1ccccc1c2CCNC(C)C`
Output: 1.0

Task: Name the outcome recorded for `CC(C)OC(=O)c1cc(C(=O)OC(C)C)cc([N+](=O)[O-])c1` in the assay.
Output: 1.0

----------
- Protocol Summary: Quantitative highthroughput screen to assess conditional lethalithy of P12 Ichikawa cells grown in Human Plasma-Like Medium with dialyzed fetal bovine serum (HPLM+ds) (AID 1963879); also: nearly all actives have a fitted effect of over 35% in size
- Condition: ATP luminescence, 48 h; viability; series mostly up to 45.8 µM
Records with an inconclusive call do not appear. Calls of active or inactive are those of the source. The call rests on the fitted dose curve; in most records, active means well fitted cell-killing curve with a large enough effect; inconclusive means small, poorly fitted or top-dose-only effect; inactive means flat fitted curve, though single readings scatter.
Please state which outcome applies, choosing from TRUE for active, FALSE for inactive

Molecule	Assigned Category
Cn1c(CNc2ccc(C(=N)N)cc2)nc2cc(C(=O)N(CCC(=O)O)c3ccccn3)ccc21	FALSE

Task: What did this assay record as the result for `NS(=O)(=O)OC[C@@H]1C[C@@H](n2ccc3c(N[C@H]4CCc5ccccc54)ncnc32)C[C@H]1O` ?
Output: TRUE

Task: What is the recorded call for this molecule in the test? `CCCNC(=O)Nc1ccc(Oc2ncnc3cc(OC)c(OC)cc23)cc1Cl`
Output: FALSE

Task: Give the logged outcome of this assay for the following molecule: `O=c1cc(-c2ccc(O)cc2)oc2cc(O)cc(O)c12`
Output: FALSE

Task: Write down the call the test reported for this molecule. Item: CC(C)N(C[C@H]1O[C@@H](n2cnc3c(N)ncnc32)[C@H](O)[C@@H]1O)C1CC(CCc2nc3ccc(C(C)(C)C)cc3[nH]2)C1 (stereo not given in full)
Output: TRUE
